# System: L. monocytogenes ATCC 19115
# ASSAY_REMARKS: Antimicrobial activity, tube dilution method
# Format: cell-based, Listeria monocytogenes
# COND: 24 h at 37 °C, four repeated experiments
Param label: returns True when MIC < 90 mM, returns False otherwise, including exact equality.

Reference set (6 entries):
>  <MOLECULE>
C[N+](C)(C)CCO.N=C(N)NCCC[C@H](N)C(=O)[O-] [[Ch][Arg]]

>  <GROUP_LABEL>
False

$$$$
>  <MOLECULE>
C[N+](C)(C)CCO.NCCCC[C@H](N)C(=O)[O-] [[Ch][Lys]]

>  <GROUP_LABEL>
True

$$$$
>  <MOLECULE>
CC(C)C[C@H](N)C(=O)[O-].C[N+](C)(C)CCO [[Ch][Leu]]

>  <GROUP_LABEL>
True

$$$$
>  <MOLECULE>
C[N+](C)(C)CCO.N[C@@H](CO)C(=O)[O-] [[Ch][Ser]]

>  <GROUP_LABEL>
False

$$$$
>  <MOLECULE>
C[N+](C)(C)CCO.[Cl-] [[Ch][Cl], cholinium chloride, reference compound]

>  <GROUP_LABEL>
False

$$$$
>  <MOLECULE>
C[N+](C)(C)CCO.NC(=O)C[C@H](N)C(=O)[O-] [[Ch][Asn]]

>  <GROUP_LABEL>
False

$$$$

query: Would you kindly verify if MIC of C[N+](C)(C)CCO.N[C@@H](CCC(=O)O)C(=O)[O-] [[Ch][Glu]] is strictly less than 90 mM?
result: False

query: Then C[N+](C)(C)CCO.O=C([O-])[C@@H]1CCCN1 [[Ch][Pro]] ?
result: True

query: Repeat for the following molecule: CC(C)[C@H](N)C(=O)O [[Ch][Val]]
result: False

query: And for C[N+](C)(C)CCO.N[C@@H](Cc1c[nH]c2ccccc12)C(=O)[O-] [[Ch][Trp]] ?
result: True
